Where these numbers come from: patent US20210332142A1

# target_or_system: T1, recombinant human Tie2 extracellular domain (human, UniProt Q02763 23-748)
# T1 construct: whole entry named; also called Recombinant human Tie2 ECD; hu Tie2
# T1 sequence (Q02763 23-748 limits assumed): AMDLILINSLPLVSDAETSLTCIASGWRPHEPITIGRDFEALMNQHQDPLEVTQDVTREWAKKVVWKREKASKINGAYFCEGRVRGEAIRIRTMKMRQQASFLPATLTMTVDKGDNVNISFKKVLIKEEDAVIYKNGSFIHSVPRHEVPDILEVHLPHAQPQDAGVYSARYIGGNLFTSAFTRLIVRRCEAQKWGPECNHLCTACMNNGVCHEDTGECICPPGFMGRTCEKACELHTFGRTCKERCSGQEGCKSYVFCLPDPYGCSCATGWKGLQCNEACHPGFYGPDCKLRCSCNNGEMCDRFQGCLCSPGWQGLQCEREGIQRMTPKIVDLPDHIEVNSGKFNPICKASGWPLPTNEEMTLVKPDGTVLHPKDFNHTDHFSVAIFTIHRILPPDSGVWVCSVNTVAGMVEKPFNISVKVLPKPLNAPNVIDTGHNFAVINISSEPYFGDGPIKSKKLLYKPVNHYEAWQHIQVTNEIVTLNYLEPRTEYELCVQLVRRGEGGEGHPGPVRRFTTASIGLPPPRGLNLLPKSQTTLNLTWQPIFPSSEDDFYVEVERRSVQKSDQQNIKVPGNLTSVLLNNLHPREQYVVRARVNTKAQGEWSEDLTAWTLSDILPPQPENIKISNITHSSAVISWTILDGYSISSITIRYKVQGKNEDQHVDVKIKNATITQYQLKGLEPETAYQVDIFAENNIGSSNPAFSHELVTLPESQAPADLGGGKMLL
# test_protocol: SPR, IgG captured, 37C
assay_readout: Normalized Binding Signal, 1500 nM

INSERT INTO measurements (binder, assay_readout, result) VALUES
  ('Tie2.1.M100cY (antibody, IgG1, name in Kabat numbering, V domains shown, hIgG1) VH: EVQLVESGGGLVQPGGSLRLSCAASGFTFSNTDISWVRQAPGKGLEWVGRISPSDGNTYYADSVKGRFTISADTSKNTAYLQMNSLRAEDTAVYYCARRTRWASWAYDYWGQGTLVTVSS VL: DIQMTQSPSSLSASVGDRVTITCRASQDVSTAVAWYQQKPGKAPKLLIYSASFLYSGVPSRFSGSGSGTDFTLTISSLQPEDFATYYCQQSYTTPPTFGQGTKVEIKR', 'Normalized Binding Signal, 1500 nM', 0.47),
  ('Tie2.1.M100cA (antibody, IgG1, name in Kabat numbering, V domains shown, hIgG1) VH: EVQLVESGGGLVQPGGSLRLSCAASGFTFSNTDISWVRQAPGKGLEWVGRISPSDGNTYYADSVKGRFTISADTSKNTAYLQMNSLRAEDTAVYYCARRTRWASWAADYWGQGTLVTVSS VL: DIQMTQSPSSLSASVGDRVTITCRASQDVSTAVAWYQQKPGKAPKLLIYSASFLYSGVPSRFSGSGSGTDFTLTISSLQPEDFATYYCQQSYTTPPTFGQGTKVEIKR', 'Normalized Binding Signal, 1500 nM', 0.14),
  ('Tie2.1.M100cP (antibody, IgG1, name in Kabat numbering, V domains shown, hIgG1) VH: EVQLVESGGGLVQPGGSLRLSCAASGFTFSNTDISWVRQAPGKGLEWVGRISPSDGNTYYADSVKGRFTISADTSKNTAYLQMNSLRAEDTAVYYCARRTRWASWAPDYWGQGTLVTVSS VL: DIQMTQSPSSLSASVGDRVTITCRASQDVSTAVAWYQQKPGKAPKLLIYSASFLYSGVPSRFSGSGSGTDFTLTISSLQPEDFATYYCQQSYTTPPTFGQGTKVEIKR', 'Normalized Binding Signal, 1500 nM', 0.11);
